Listing of entries alongside the reported melting point.

compound: COCCN1CCN(C(=O)c2ccc(NC(=O)NC34CC5CC(CC(C5)C3)C4)cc2)CC1
melting point: 191 to 194 °C
--
compound: COCCN1CCN(C(=O)c2ccc(NC(=O)Nc3ccc(F)cc3)cc2)CC1
melting point: 248 to 250 °C
--
compound: CN(C)CCN(C)C(=O)c1cccc(NC(=O)NC23CC4CC(CC(C4)C2)C3)c1
melting point: 89 to 94 °C
--
compound: CN1CCN(C(=O)c2ccc(NC(=O)NC34CC5CC(CC(C5)C3)C4)cc2)CC1
melting point: 190 to 196 °C
--
compound: COCCN1CCN(C(=O)c2ccc(NC(=O)Nc3ccc(OC(F)(F)F)cc3)cc2)CC1
melting point: 235 to 240 °C
--
compound: CN(C)CCN(C)C(=O)c1ccc(NC(=O)NC23CC4CC(CC(C4)C2)C3)cc1
melting point: 150 to 156 °C
--
compound: CN(CC(=O)N1CCOCC1)C(=O)c1ccc(NC(=O)Nc2ccc(C(F)(F)F)cc2)cc1
melting point: 226 to 233 °C
--
compound: CN(CC(=O)O)C(=O)C1CCC(NC(=O)NC23CC4CC(CC(C4)C2)C3)CC1 (stereo not shown)
melting point: 236 to 240 °C
--
compound: O=C(Nc1ccc(C(F)(F)F)cc1)Nc1cccc(C(=O)N2CCC(C(=O)O)CC2)c1
melting point: 193 to 197 °C
--
compound: O=C(Nc1ccc(Cl)cc1)Nc1ccc(C(=O)N2CCC(C(=O)O)CC2)cc1
melting point: 238 to 241 °C
--
compound: O=C(NC1CCC(C(=O)N2CCOCC2)CC1)NC12CC3CC(CC(C3)C1)C2 (stereo not shown)
melting point: 128 to 131 °C
--
compound: O=C(Nc1ccc(C(=O)N2CCC(C(=O)O)CC2)cc1)NC12CC3CC(CC(C3)C1)C2
melting point: 272 to 275 °C
--
compound: O=C(NC1CCCCC1)NC1CCC(C(=O)N2CCOCC2)CC1 (stereo not shown)
melting point: 159 to 163 °C

====

System: soluble epoxide hydrolase (sEH)
Assay: Fluorescent assay for mouse and human soluble epoxide hydrolase (CMNPC substrate)
Assay type: biochemical
Settings: Conc of I 500 nM
assay_endpoint: % I

molecule: COCCN1CCN(C(=O)c2ccc(NC(=O)NC34CC5CC(CC(C5)C3)C4)cc2)CC1
assay_endpoint: % I
recorded_value: 96%
//
molecule: CN(C)CCN(C)C(=O)c1cccc(NC(=O)NC23CC4CC(CC(C4)C2)C3)c1
assay_endpoint: % I
recorded_value: 81%
//
molecule: O=C(Nc1ccc(C(F)(F)F)cc1)Nc1cccc(C(=O)N2CCC(C(=O)O)CC2)c1
assay_endpoint: % I
recorded_value: 94%
//
molecule: O=C(Nc1ccc(C(F)(F)F)cc1)Nc1cccc(C(=O)N2CCOCC2)c1
assay_endpoint: % I
recorded_value: 99%
//
molecule: O=C(Nc1ccc(Cl)cc1)Nc1cccc(C(=O)N2CCOCC2)c1
assay_endpoint: % I
recorded_value: 88%
//
molecule: CN1CCN(C(=O)c2ccc(NC(=O)Nc3ccc(F)cc3)cc2)CC1
assay_endpoint: % I
recorded_value: 64%
//
molecule: O=C(NC1CCC(C(=O)N2CCC(C(=O)O)CC2)CC1)NC12CC3CC(CC(C3)C1)C2 (centres unmarked)
assay_endpoint: % I
recorded_value: 76%
//
molecule: CN(CC(=O)O)C(=O)C1CCC(NC(=O)NC23CC4CC(CC(C4)C2)C3)CC1 (centres unmarked)
assay_endpoint: % I
recorded_value: 95%
//
molecule: CN(CC(=O)N1CCOCC1)C(=O)c1ccc(NC(=O)Nc2ccc(C(F)(F)F)cc2)cc1
assay_endpoint: % I
recorded_value: 86%
//
molecule: CN(C)CCN(C)C(=O)c1ccc(NC(=O)NC23CC4CC(CC(C4)C2)C3)cc1
assay_endpoint: % I
recorded_value: 88%
//
molecule: O=C(NC1CCCCC1)NC1CCC(C(=O)N2CCOCC2)CC1 (centres unmarked)
assay_endpoint: % I
recorded_value: 92%
//
molecule: O=C(Nc1ccc(Cl)cc1)Nc1ccc(C(=O)N2CCC(C(=O)O)CC2)cc1
assay_endpoint: % I
recorded_value: 64%
//
molecule: COCCN1CCN(C(=O)c2ccc(NC(=O)Nc3ccc(F)cc3)cc2)CC1
assay_endpoint: % I
recorded_value: 77%
//
molecule: CN1CCN(C(=O)c2cc(NC(=O)Nc3ccc(C(F)(F)F)cc3)ccc2F)CC1
assay_endpoint: % I
recorded_value: 95%
//
molecule: O=C(Nc1ccc(Cl)cc1)Nc1cccc(C(=O)N2CCC(N3CCOCC3)CC2)c1
assay_endpoint: % I
recorded_value: 87%
//
molecule: O=C(Nc1ccc(Cl)cc1)Nc1ccc(C(=O)N2CCOCC2)cc1
assay_endpoint: % I
recorded_value: 94%
//
molecule: CC(C)N1CCN(C(=O)c2cccc(NC(=O)Nc3ccc(C(F)(F)F)cc3)c2)CC1
assay_endpoint: % I
recorded_value: 92%

====

Listing of entries alongside the reported % I.
Test system: soluble epoxide hydrolase (sEH)
Experiment: Fluorescent assay for mouse and human soluble epoxide hydrolase (CMNPC substrate)
Type: biochemical
Conditions: Conc of I 500 nM

molecule: O=C(Nc1ccc(F)cc1)Nc1ccc(C(=O)N2CCOCC2)cc1
test_target: soluble epoxide hydrolase (sEH)
result_units: %
% I: 69
--
molecule: O=C(NC1CCC(C(=O)N2CCOCC2)CC1)NC12CC3CC(CC(C3)C1)C2 (stereo not shown)
test_target: soluble epoxide hydrolase (sEH)
result_units: %
% I: 96
--
molecule: CN1CCN(C(=O)c2cccc(NC(=O)Nc3ccc(C(F)(F)F)cc3)c2)CC1
test_target: soluble epoxide hydrolase (sEH)
result_units: %
% I: 94
--
molecule: CN1CCN(C(=O)c2ccc(NC(=O)NC34CC5CC(CC(C5)C3)C4)cc2)CC1
test_target: soluble epoxide hydrolase (sEH)
result_units: %
% I: 96

====

System: soluble epoxide hydrolase (sEH)
Test: Fluorescent assay for mouse and human soluble epoxide hydrolase (CMNPC substrate)
Assay type: biochemical
Conditions: Conc of I 50 nM
// label = Satisfied if % I is not less than 90%, otherwise Not satisfied

compound: O=C(Nc1ccc(Cl)cc1)Nc1ccc(C(=O)N2CCOCC2)c(F)c1 [Compound 14]
class_label: Not satisfied
--
compound: O=C(Nc1ccc(C(F)(F)F)cc1)Nc1ccc(F)c(C(=O)N2CCOCC2)c1 [Compound 16]
class_label: Not satisfied
--
compound: CN(CCN1CCOCC1)C(=O)c1ccc(NC(=O)Nc2ccc(C(F)(F)F)cc2)cc1 [Compound 41]
class_label: Satisfied
--
compound: CC(C)N1CCN(C(=O)c2ccc(NC(=O)Nc3ccc(C(F)(F)F)cc3)cc2)CC1 [Compound 34]
class_label: Satisfied
--
compound: O=C(Nc1ccc(C(F)(F)F)cc1)Nc1ccc(C(=O)N2CCOCC2)c(F)c1 [Compound 22]
class_label: Satisfied
--
compound: CN1CCN(C(=O)c2ccc(NC(=O)Nc3ccc(C(F)(F)F)cc3)cc2)CC1 [Compound 18]
class_label: Not satisfied
--
compound: CN1CCN(C(=O)c2ccc(NC(=O)Nc3ccc(OC(F)(F)F)cc3)cc2)CC1 [Compound 27]
class_label: Not satisfied

====

Listing of entries alongside the reported % I.
Tested on: soluble epoxide hydrolase (sEH)
Assay: Fluorescent assay for mouse and human soluble epoxide hydrolase (CMNPC substrate)
Format: biochemical
Conditions: Conc of I 5000 nM

molecule_smiles: CN(CC(=O)O)C(=O)c1ccc(NC(=O)NC23CC4CC(CC(C4)C2)C3)cc1
% I [%]: 93
--
molecule_smiles: O=C(Nc1ccc(C(=O)N2CCC(C(=O)O)CC2)cc1)NC12CC3CC(CC(C3)C1)C2
% I [%]: 99
--
molecule_smiles: CN(CC(=O)O)C(=O)c1cccc(NC(=O)NC23CC4CC(CC(C4)C2)C3)c1
% I [%]: 90
--
molecule_smiles: O=C(Nc1cccc(C(=O)N2CCC(C(=O)O)CC2)c1)NC12CC3CC(CC(C3)C1)C2
% I [%]: 99
--
molecule_smiles: O=C(Nc1ccc(Cl)cc1)Nc1ccc(C(=O)N2CCC(N3CCOCC3)CC2)cc1
% I [%]: 96
--
molecule_smiles: O=C(Nc1ccccc1)Nc1ccc(C(=O)N2CCOCC2)cc1
% I [%]: 97

====

System: soluble epoxide hydrolase (sEH)
Test: Fluorescent assay for mouse and human soluble epoxide hydrolase (CMNPC substrate)
Format: biochemical
Settings: Conc of I 50 nM
Listing of entries alongside the reported % I.

molecule: COCCN1CCN(C(=O)c2ccc(NC(=O)Nc3ccc(OC(F)(F)F)cc3)cc2)CC1 [Compound 28]
result_units: %
% I: 91
//
molecule: CN1CCN(C(=O)c2ccc(NC(=O)Nc3ccc(C(F)(F)F)cc3)cc2F)CC1 [Compound 30]
result_units: %
% I: 88
//
molecule: O=C(Nc1ccc(C(=O)N2CCOCC2)cc1)Nc1ccc(C(F)(F)F)cc1 [Compound 17]
result_units: %
% I: 89
//
molecule: O=C(Nc1ccc(OC(F)(F)F)cc1)Nc1ccc(C(=O)N2CCOCC2)cc1 [Compound 26]
result_units: %
% I: 88
//
molecule: CC(C)N1CCN(C(=O)c2ccc(NC(=O)Nc3ccc(OC(F)(F)F)cc3)cc2)CC1 [Compound 32]
result_units: %
% I: 92

All figures here come from patent US20080032978A1.
